# Test system: Mus musculus
# TEST: Anticonvulsant activity in ip dosed NMRI mouse assessed as protection against 6 Hz psychomotor seizure after 30 mins
# Type: functional
# TEST PARAMETERS: 0.5 h, read-out: MED
REPORTED ENDPOINT: minimal effective dose (mg/kg)
Write it as a number; the unit mg/kg goes unstated.

Consider the worked cases shown below.
- MOLECULE: "CCC[C@@H](N)C(=O)NCc1ccccc1"
  UNITS: "mg/kg"
  REPORTED VALUE: 66
- MOLECULE: "N[C@H](Cc1ccccc1)C(=O)NCc1ccccc1"
  UNITS: "mg/kg"
  REPORTED VALUE: 81
- MOLECULE: "C=CCOCC(N)C(=O)NCc1ccccc1 (racemic)"
  UNITS: "mg/kg"
  REPORTED VALUE: 130

// minimal effective dose lookup, molecule = CC[C@@H](N)C(=O)NCc1ccccc1 , result: 62

// minimal effective dose lookup, molecule = N[C@@H](C(=O)NCc1ccccc1)C1CCCCC1 , result: 140

// minimal effective dose lookup, molecule = C#CCOCC(N)C(=O)NCc1ccccc1 (racemic) , result: 130

// minimal effective dose lookup, molecule = CCCC(N)C(=O)NCc1ccccc1 (racemic) , result: 120

// minimal effective dose lookup, molecule = CSCC[C@@H](N)C(=O)NCc1ccccc1 , result: 130

---

# Tested on: Mus musculus
# TEST: Anticonvulsant activity in ip dosed CF1 mouse assessed as protection against maximal electroshock-induced seizure after 30 mins
# Assay type: functional
# TEST PARAMETERS: 0.5 h
Mark Fulfilled for ED50 under 80 mg/kg, Not fulfilled if at or over.

- COMPOUND: "CC(=O)NC(C(=O)NCc1ccccc1)c1ccsc1 (racemic)"
  CLASS ASSIGNMENT: "Not fulfilled"
- COMPOUND: "CC(=O)NC(C(=O)NCc1ccccc1)c1ccccc1 (racemic)"
  CLASS ASSIGNMENT: "Fulfilled"
- COMPOUND: "CC(N)C(=O)NCc1ccccc1 (racemic)"
  CLASS ASSIGNMENT: "Not fulfilled"
- COMPOUND: "COCC(N)C(=O)NCc1ccccc1 (racemic)"
  CLASS ASSIGNMENT: "Not fulfilled"
- COMPOUND: "CC(=O)NC(CN(C)C)C(=O)NCc1ccccc1 (racemic)"
  CLASS ASSIGNMENT: "Fulfilled"
- COMPOUND: "CCCC(NC(C)=O)C(=O)NCc1ccccc1 (racemic)"
  CLASS ASSIGNMENT: "Fulfilled"
- COMPOUND: "CC(=O)NC(C)C(=O)NCc1ccccc1 (racemic)"
  CLASS ASSIGNMENT: "Fulfilled"
- COMPOUND: "CCCC(CCC)C(=O)O [VALPROIC ACID]"
  CLASS ASSIGNMENT: "Not fulfilled"

Task item: Would you kindly verify if ED50 of CC(=O)NC(C(=O)NCc1ccccc1)c1ccccn1 (racemic) is strictly less than 80 mg/kg?
Reply: Fulfilled

---

Below: a set of entries, each annotated with reported TD50 at 0.5 h.
# TEST: Neurotoxicity in ip dosed NMRI mouse assessed as minimal motor impairment after 30 mins
# Type: toxicity, organism-based
# TEST PARAMETERS: in vivo

Consider the worked cases shown below.
- MOLECULE: "CC(=O)NC(CN(C)C)C(=O)NCc1ccccc1 (racemic)"
  TD50 at 0.5 h: "< 100 mg/kg"
- MOLECULE: "CCC(NC(C)=O)C(=O)NCc1ccccc1 (racemic)"
  TD50 at 0.5 h: "> 300 mg/kg"
- MOLECULE: "CC(=O)N[C@H](CO)C(=O)NCc1ccccc1"
  TD50 at 0.5 h: "> 500 mg/kg"
- MOLECULE: "CC(=O)N[C@@H](C(=O)NCc1ccccc1)C(C)(C)C"
  TD50 at 0.5 h: "> 300 mg/kg"
- MOLECULE: "COC[C@@H](N)C(=O)NCc1ccccc1"
  TD50 at 0.5 h: "< 30 mg/kg"

// TD50 at 0.5 h lookup, molecule = CC(=O)NC(CO)C(=O)NCc1ccccc1 (racemic) , result: < 300 mg/kg

// TD50 at 0.5 h lookup, molecule = CC(=O)N[C@@H](C)C(=O)NCc1ccccc1 , result: 840 mg/kg

// TD50 at 0.5 h lookup, molecule = CC(C)(C)[C@H](N)C(=O)NCc1ccccc1 , result: 100 mg/kg

// TD50 at 0.5 h lookup, molecule = CC[C@@H](N)C(=O)NCc1ccccc1 , result: 80 mg/kg
